Taken from paper PMC6346587.

- SYSTEM NAME: PvG6PD (Plasmodium vivax)
- Sequence (A5K3M1 entry or part of it): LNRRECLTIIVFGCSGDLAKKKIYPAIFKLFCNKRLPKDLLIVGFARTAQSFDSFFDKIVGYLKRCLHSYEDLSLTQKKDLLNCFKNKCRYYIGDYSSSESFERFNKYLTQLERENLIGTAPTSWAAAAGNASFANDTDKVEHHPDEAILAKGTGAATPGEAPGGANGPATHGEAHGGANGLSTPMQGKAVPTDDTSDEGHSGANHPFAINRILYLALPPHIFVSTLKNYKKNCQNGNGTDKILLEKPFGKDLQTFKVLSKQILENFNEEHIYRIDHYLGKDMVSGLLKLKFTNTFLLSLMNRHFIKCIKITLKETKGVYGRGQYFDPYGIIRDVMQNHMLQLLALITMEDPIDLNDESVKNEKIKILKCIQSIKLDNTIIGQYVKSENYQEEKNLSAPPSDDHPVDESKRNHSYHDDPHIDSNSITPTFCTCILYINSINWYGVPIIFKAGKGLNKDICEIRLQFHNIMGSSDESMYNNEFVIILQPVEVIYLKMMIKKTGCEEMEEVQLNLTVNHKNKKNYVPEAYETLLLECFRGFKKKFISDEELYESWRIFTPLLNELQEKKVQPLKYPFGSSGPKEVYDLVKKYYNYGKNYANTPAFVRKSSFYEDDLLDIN
- PROCEDURE TEXT: PvG6PD enzyme inhibition assay (NADPH formation, absorbance 340 nm / fluorescence)
- Format: biochemical
- DETAILS: mean ± SD, at least two independent determinations, different enzyme batches; read-out: IC50 on PvG6PD
READOUT NAME: IC50 (µM)
Use µM as the unit, but write only the number.

Query: Any idea what IC50 was measured for O=CC(Cl)=C(I)I [13 (vz0288)] ?
Result: 23.3

* * *

- SYSTEM NAME: PvG6PD (Plasmodium vivax)
- PROCEDURE TEXT: PvG6PD enzyme inhibition assay (NADPH formation, absorbance 340 nm / fluorescence)
- Format: biochemical
- DETAILS: substrates close to KM (85 µM G6P, 15 µM NADP+); read-out: IC50 on PvG6PD
READOUT NAME: pIC50
Recall that pIC50 is obtained by taking minus log10 of the concentration measured in molar.

Query: Value wanted: pIC50 (PvG6PD (Plasmodium vivax)) of entry CCN1CCC[C@@H]1CNC(=O)c1ccc2c(c1)NC(=O)c1cccc(C)c1S2
Result: 5.59
